Target: FAAH (Mus musculus)
Construct: Proteomes (mouse brain membrane fraction or cell lysates); from tissue; host or cells: mouse brain membrane fraction (or cell lysates, not specified)
Sequence (O08914 whole entry): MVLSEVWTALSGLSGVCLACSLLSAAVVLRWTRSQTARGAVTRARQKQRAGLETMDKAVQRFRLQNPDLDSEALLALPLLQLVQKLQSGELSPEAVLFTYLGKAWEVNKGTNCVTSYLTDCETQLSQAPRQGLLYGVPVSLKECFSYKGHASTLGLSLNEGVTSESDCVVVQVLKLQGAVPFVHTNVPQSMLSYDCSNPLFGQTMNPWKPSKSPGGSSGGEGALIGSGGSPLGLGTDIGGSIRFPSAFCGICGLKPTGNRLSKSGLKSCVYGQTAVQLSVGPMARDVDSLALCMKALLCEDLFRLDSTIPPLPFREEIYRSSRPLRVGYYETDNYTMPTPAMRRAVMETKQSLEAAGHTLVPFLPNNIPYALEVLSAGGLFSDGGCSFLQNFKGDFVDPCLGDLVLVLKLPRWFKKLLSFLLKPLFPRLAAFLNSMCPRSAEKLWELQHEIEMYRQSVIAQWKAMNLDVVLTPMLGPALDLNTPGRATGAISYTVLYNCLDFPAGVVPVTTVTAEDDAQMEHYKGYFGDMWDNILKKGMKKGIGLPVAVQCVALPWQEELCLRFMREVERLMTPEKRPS
Test: In vitro competitive activity-based protein profiling (gel-based, FP-Rh or HT-01 probe)
Type: biochemical
Conditions: 10 μM inhibitor; read-out: % Inhibition at 10 μM, B = FAAH
reported_metric: inhibition at 10 µM

N#Cc1cnn(C(=O)N2CCN(Cc3ccc(OCc4ccccc4)cc3)CC2)c1 : > 75%
Cc1cnn(C(=O)N2CCCN(C(=O)OC(C)(C)C)CC2)c1 : > 75%
Cc1cnn(C(=O)N2CCN(Cc3ccc(Oc4ccccc4)cc3)CC2)c1 : > 75%
O=C(c1cnn(C(=O)N2CCN(Cc3ccc4c(c3)OCO4)CC2)c1)N1CCCC1 : > 75%
O=C(N1CCCC1)n1cc(-c2ccc(-c3ccccc3Cl)cc2)cn1 : < 25%
N#Cc1cnn(C(=O)NCCCCc2ccccc2)c1 : > 75%
O=C(N1CCCC1)n1cc(-c2ccccc2)cn1 : > 75%
CS(=O)(=O)N1CCN(C(=O)n2cc(C(F)(F)F)cn2)CC1 : 25 to 75%

// returns reported inhibition at 10 µM for input COC(=O)c1cnn(C(=O)N2CCN(Cc3ccc4ccccc4c3)CC2)c1 > 75%

// same read-out, input: O=C(N1CCN(Cc2ccc3ccccc3c2)CC1)n1cccn1 > 75%

// same read-out, input: N#Cc1cnn(C(=O)NCCCc2ccccc2)c1 > 75%

// same read-out, input: O=C(N1CCCCC1)n1cccn1 > 75%

// same read-out, input: O=C(N1CCOCC1)n1cc(C(F)(F)F)cn1 > 75%

// same read-out, input: O=C(N1CCN(C(c2ccc(Cl)cc2)c2ccc(Cl)cc2)CC1)n1cc(-c2ccccc2C(F)(F)F)cn1 < 25%

// same read-out, input: N#Cc1cnn(C(=O)NCc2ccc3ccccc3c2)c1 > 75%

// same read-out, input: CS(=O)(=O)N1CCCN(C(=O)n2cc(C(F)(F)F)cn2)CC1 > 75%

====

Biological target: ABHD6 (Mus musculus, UniProt Q8R2Y0)
Construct: Proteomes (mouse brain membrane fraction or cell lysates); from tissue; host or cells: mouse brain membrane fraction (or cell lysates, not specified)
Sequence (Q8R2Y0 1-336): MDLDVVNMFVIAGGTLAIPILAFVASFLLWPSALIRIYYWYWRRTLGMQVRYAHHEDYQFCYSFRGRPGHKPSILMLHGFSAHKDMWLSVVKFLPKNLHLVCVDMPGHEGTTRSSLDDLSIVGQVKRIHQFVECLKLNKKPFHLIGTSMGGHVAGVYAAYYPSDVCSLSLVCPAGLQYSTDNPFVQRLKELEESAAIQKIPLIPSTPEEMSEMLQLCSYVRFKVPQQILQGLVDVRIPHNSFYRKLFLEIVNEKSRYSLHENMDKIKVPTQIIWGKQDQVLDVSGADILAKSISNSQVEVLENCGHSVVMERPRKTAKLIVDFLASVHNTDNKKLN
Test: In vitro competitive activity-based protein profiling (gel-based, FP-Rh or HT-01 probe)
Type: biochemical
Conditions: 1 μM inhibitor; read-out: % Inhibition at 1 μM, C = ABHD6
reported_metric: inhibition at 1 µM

Consider the reported inhibition at 1 µM for these compounds:
O=C(N1CCOCC1)n1cc(C(F)(F)F)cn1 : > 75%
O=C(c1ccccc1)N1CCN(C(=O)n2cc(C(F)(F)F)cn2)CC1 : < 25%
CC(=O)N1CCN(C(=O)n2cc(C#N)cn2)CC1 : < 25%
Cc1ccccc1N1CCN(C(=O)n2cc(C(F)(F)F)cn2)CC1 : > 75%
CC(C)(C)OC(=O)N1CCN(C(=O)n2cccn2)CC1 : 25 to 75%

Find inhibition at 1 µM (ABHD6 (Mus musculus, UniProt Q8R2Y0)) for the entry O=C(N1CCN(Cc2ccc(CN3CCOCC3)cc2)CC1)n1cc(Cl)cn1 > 75%

// same read-out, input: N#Cc1cnn(C(=O)N2CCN(Cc3ccc(-c4ccccc4)cc3Cl)CC2)c1 > 75%

====

In this section, each of the molecules is paired with its reported inhibition at 1 µM.
Biological target: ABHD6 (Mus musculus)
Construct: Proteomes (mouse brain membrane fraction or cell lysates); from tissue; host or cells: mouse brain membrane fraction (or cell lysates, not specified)
Sequence (Q8R2Y0 1-336): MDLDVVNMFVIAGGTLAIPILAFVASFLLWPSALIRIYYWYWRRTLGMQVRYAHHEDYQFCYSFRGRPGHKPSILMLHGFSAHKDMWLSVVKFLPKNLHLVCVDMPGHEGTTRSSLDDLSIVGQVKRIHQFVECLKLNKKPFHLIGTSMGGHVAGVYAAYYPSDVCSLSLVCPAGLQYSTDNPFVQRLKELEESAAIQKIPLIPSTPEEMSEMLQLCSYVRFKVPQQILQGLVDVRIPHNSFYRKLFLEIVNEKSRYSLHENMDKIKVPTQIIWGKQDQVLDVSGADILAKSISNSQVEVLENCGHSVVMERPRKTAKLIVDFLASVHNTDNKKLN
Assay: In vitro competitive activity-based protein profiling (gel-based, FP-Rh or HT-01 probe)
Type: biochemical
Conditions: 1 μM inhibitor; gel-based competitive ABPP; read-out: % Inhibition at 1 μM, C = ABHD6
Description: In Vitro Competitive Activity-Based Protein Profiling. Proteomes (mouse brain membrane fraction or cell lysates) (50 μL, 1.0 mg/mL total protein concentration) were preincubated with varying concentrations of inhibitors at 37° C. […] Following gel imaging, serine hydrolase activity was determined by measuring fluorescent intensity of gel bands corresponding to MAGL, ABHD6, FAAH, and PLA2G7 using ImageJ 1.43u software.

Consider the reported inhibition at 1 µM for these molecules:
CCN(Cc1ccc(N2CCOCC2)cc1)C(=O)n1cc(Cl)cn1 : < 25%
N#Cc1cnn(C(=O)N2CCN(Cc3ccc(C(=O)N4CCCCC4)cc3Cl)CC2)c1 : > 75%
O=C(N1CCN(Cc2cccc(C(F)(F)F)c2)CC1)n1cc(C(F)(F)F)cn1 : > 75%

// returns reported inhibition at 1 µM for input Cc1ccccc1CN1CCN(C(=O)n2cc(C(F)(F)F)cn2)CC1 > 75%

// same read-out, input: COc1ccccc1CN1CCN(C(=O)n2cc(C(F)(F)F)cn2)CC1 > 75%

// same read-out, input: N#Cc1cnn(C(=O)N2CCCCCC2)c1 25 to 75%

// same read-out, input: CCN(Cc1ccc(C)cc1)C(=O)n1cc(C)cn1 < 25%

// same read-out, input: O=C(N1CCN(Cc2cccc(Cl)c2)CC1)n1cc(C(F)(F)F)cn1 > 75%

// same read-out, input: Cc1cnn(C(=O)N2CCCN(Cc3cccc(Oc4ccccc4)c3)CC2)c1 < 25%

// same read-out, input: CCN(Cc1cccc(N2CCOCC2)c1)C(=O)n1cc(Cl)cn1 < 25%

====

In this section, each of the compounds is paired with its reported IC50.
Biological target: MAGL (Mus musculus, UniProt O35678)
Construct: Proteomes (mouse brain membrane fraction or cell lysates); from tissue; host or cells: mouse brain membrane fraction (or cell lysates, not specified)
Sequence (O35678 1-303): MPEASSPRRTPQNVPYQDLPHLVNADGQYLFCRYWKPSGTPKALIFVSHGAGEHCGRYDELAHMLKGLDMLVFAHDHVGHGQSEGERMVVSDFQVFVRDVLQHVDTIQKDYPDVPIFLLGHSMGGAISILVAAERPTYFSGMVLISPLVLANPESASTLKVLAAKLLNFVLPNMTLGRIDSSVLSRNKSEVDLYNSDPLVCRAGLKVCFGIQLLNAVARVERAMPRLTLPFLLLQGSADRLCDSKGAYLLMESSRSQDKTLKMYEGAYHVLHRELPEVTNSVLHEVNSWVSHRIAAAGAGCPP
Test: In vitro competitive activity-based protein profiling (gel-based, FP-Rh or HT-01 probe)
Assay type: biochemical
Conditions: mouse brain membrane fraction or cell lysates, 30 min preincubation at 37° C.; read-out: Mouse (IC50 value, nM) MAGL

Consider the reported IC50 for these compounds:
O=C(N1CCN(Cc2ccccc2Cl)CC1)n1cc(Cl)cn1 : < 100 nM
Cc1cc(-c2ccccc2)ccc1CN1CCN(C(=O)n2cc(C(=O)N3CCOCC3)cn2)CC1 : 100 to 1000 nM
O=C(N1CCN(C(c2ccc(Cl)cc2)c2ccc(Cl)cc2)CC1)n1cc(F)cn1 : < 100 nM

// returns reported IC50 for input O=C(c1cnn(C(=O)N2CCN(C(c3ccc(Cl)cc3)c3ccc(Cl)cc3)CC2)c1)N1CCC1 100 to 1000 nM

// same read-out, input: COc1cccc(N2CCN(C(=O)n3cc(C(F)(F)F)cn3)CC2)c1 < 100 nM

// same read-out, input: Cc1cc(-c2ccccc2)ccc1CN1CCN(C(=O)n2cc(Cl)cn2)CC1 < 100 nM

// same read-out, input: CCN(Cc1cccc(OC)c1)C(=O)n1cc(C#N)cn1 100 to 1000 nM

// same read-out, input: O=C(N1CCN(Cc2ccc(Cl)cc2N2CCC3(CCOCC3)C2)CC1)n1cc(Cl)cn1 < 100 nM

// same read-out, input: O=C(N1CCN(C(c2ccc(Cl)cc2)c2ccc(Cl)cc2)CC1)n1cc(Cl)cn1 < 100 nM

// same read-out, input: CCN(Cc1ccc(Cl)cc1)C(=O)n1cc(C#N)cn1 100 to 1000 nM

// same read-out, input: COc1cccc(CN2CCN(C(=O)n3cc(C(F)(F)F)cn3)CC2)c1 < 100 nM

// same read-out, input: O=C(N1CCN(Cc2ccc(Cl)cc2N2CCOCC2)CC1)n1cc(Cl)cn1 < 100 nM

// same read-out, input: CCN(Cc1cccc(C)c1)C(=O)n1cc(C#N)cn1 100 to 1000 nM

// same read-out, input: O=C(N1CCN(Cc2ccc(N3CCCC3)cc2)CC1)n1cc(Cl)cn1 < 100 nM
